# system-tested: human IgG1 antibody (#I5154; Sigma-Aldrich) (human)
# test: SPR, single cycle kinetics, IgG1 chip

# binder, kon (M⁻¹ s⁻¹)
records = [
    ("R3-75 rabbit-derived single-chain antibody-His (scFv) scFv: QSVKESGGRLVTPGTPLTLTCTVSGIDLSSNAMSWVRQAPGEGLEWIGTISTVGKTYFASWAKGRFTISKTSTTVDLRITSPTTEDTATYFCATRYDSYGYAYNYWFGTLWGPGTLVTVTSGGGGSGGGGSGGGGSELDLTQTPPSVSGAVGGTVTIKCQASENINSELAWYQQKPGQRPKLLIYDASKLASGVPSRFSGSGSGTEYTLTISGMQCDDAATYYCQSTYYDGNYVYAFGGGTEVDVTRSHHHHHH", 67000),
    ("R3-23 rabbit-derived single-chain antibody-His (scFv) scFv: QSVKESEGRLVTPGTPLTLTCTVSGFSLSRYAVSWVRQAPGKGLEWIGIIGSGGSTSYATWARGRFTISKTSTTVDLKITSPTTEDTVTYFCGSYYDSHGYAYVSLWGPGTLVTVTSGGGGSGGGGSGGGGSELVLTQTPSPVSGAVGGTVTINCQASQSISTALAWYQQKPGQPPKLLIYSASTLASGVSSRFKGSGSGTGFTLTISDLECADAATYYCQSYYGSSSDNAFGGGTEVVIKRSHHHHHH", 11000),
    ("R1-7 rabbit-derived single-chain antibody-His (scFv) scFv: QSLEESGGRLVTPGTPLTLTCTVSGIDLRRYAMGWVRQAPGKGLQWIGIIASGNTDYASWAKGRFTISATSTTVDLKITSPTTEDTATYFCARYSGDNGGTLNLWGPGTLVTVTSGGGGSGGGGSGGGGSELVMTQTAASVSEPVGGTVTIKCQASQSISSYLAWYQQKPGQPPKLLIYAASNLASGVSSRFKGSGSGTEFTLTISDLECADAATYYCQSYYSISSYGNTFGGGTEVEITGSHHHHHH", 71000),
    ("R1-27 rabbit-derived single-chain antibody-His (scFv) scFv: QQQLMESGGGLVTPGTPLTLTCTVSGIDLRRYAMGWVRQAPGKGLQWIGIIASGNTDYASWAKGRFTISATSTTVDLKITSSTTEDTATYFCARYSGDNGGTLNLWGPGTLATVTTGGGGSGGGGSGGGGSELVMTQTAASVSEPVGGTVTIKCQASEHIRNYLAWYQQKPGQPPKLLIYTTSNLASGVPSRFSGSGSGTEYTLTISDLECADAATYYCQNYYDISTYGNTFGGGTEVDVKGSHHHHHH", 9900),
]
